Assay text: Temperature range of liquid crystal (MR)
Format: physicochemical
Assay context: Table 1
Quantity: Temperature (MR) Range of liquid crystal

Answered examples (8):
Compound smiles: CCCCCCCOc1ccc(C(=O)Oc2ccc(C(F)(F)F)cc2)cc1
Quantity: Temperature (MR) Range of liquid crystal
Observed value: 62.9-74.3 °C
--
Compound smiles: CCCCCCCCOc1ccc(C(=O)Oc2ccc(C(F)(F)F)cc2)cc1
Quantity: Temperature (MR) Range of liquid crystal
Observed value: 62.5-72.5 °C
--
Compound smiles: N#Cc1ccc(OC(=O)c2ccc(C(F)(F)C(F)(F)C(F)(F)C(F)(F)C(F)(F)C(F)(F)C(F)(C(F)(F)F)C(F)(F)F)cc2)cc1
Quantity: Temperature (MR) Range of liquid crystal
Observed value: 130.7-140.7 °C
--
Compound smiles: O=C(Oc1ccc([N+](=O)[O-])cc1)c1ccc(C(F)(F)C(F)(F)C(F)(C(F)(F)F)C(F)(F)F)cc1
Quantity: Temperature (MR) Range of liquid crystal
Observed value: 68.6-79.2 °C
--
Compound smiles: N#Cc1ccc(OC(=O)c2ccc(C(F)(F)C(F)(F)C(F)(F)C(F)(F)C(F)(F)C(F)(F)F)cc2)cc1
Quantity: Temperature (MR) Range of liquid crystal
Observed value: 99.8-123.3 °C
--
Compound smiles: N#Cc1ccc(OC(=O)c2ccc(C(F)(F)C(F)(F)C(F)(C(F)(F)F)C(F)(F)F)cc2)cc1
Quantity: Temperature (MR) Range of liquid crystal
Observed value: 90.0-98.5 °C
--
Compound smiles: N#Cc1ccc(OC(=O)c2ccc(C(F)(F)C(F)(F)C(F)(F)C(F)(F)C(F)(F)C(F)(F)C(F)(F)C(F)(F)F)cc2)cc1
Quantity: Temperature (MR) Range of liquid crystal
Observed value: 118-145 °C
--
Compound smiles: N#Cc1ccc(OC(=O)c2ccc(C(F)(F)C(F)(F)C(F)(F)C(F)(F)C(F)(C(F)(F)F)C(F)(F)F)cc2)cc1
Quantity: Temperature (MR) Range of liquid crystal
Observed value: 109.6-121.3 °C

Kindly consider the entry below.
Sure, the documented Temperature (MR) Range of liquid crystal for CCCCCCOc1ccc(C(=O)Oc2ccc(C(F)(F)F)cc2)cc1 is 74.7-76.5 °C

###

Assay text: Temperature range of liquid crystal (MR)
Type: physicochemical
Assay context: Table 1; monotropic
Quantity: Temperature (MR) Range of liquid crystal

Compound smiles: Cc1ccc(OC(=O)c2ccc(C(F)(F)C(F)(F)C(F)(F)C(F)(F)C(F)(F)C(F)(F)C(F)(F)C(F)(F)F)cc2)cc1
Observed value: 111-112 °C

Compound smiles: CCCCCc1ccc(OC(=O)c2ccc(C(F)(F)C(F)(F)C(F)(C(F)(F)F)C(F)(F)F)cc2)cc1
Observed value: 57-58 °C

Kindly consider the entry below.
Sure, the documented Temperature (MR) Range of liquid crystal for O=C(Oc1ccc(C(F)(F)F)cc1)c1ccc(C(F)(F)C(F)(F)C(F)(C(F)(F)F)C(F)(F)F)cc1 is 67.5-68.7 °C
